The measured values listed here are drawn from PubChem BioAssay (NCATS).

Collected Potency values appear next to each entry.
- Test system: CRL-7250
- experimental_details: Cytotoxic Profiling of Annotated Libraries Using Quantitative High-Throughput Screening (AID 1296008); note: potency is the fitted concentration of half-maximal effect; nearly all actives have a fitted effect of over 60% in size
- run_conditions: Five cell lines viability, CellTiter-Glo ATP luminescence, 48-72 h
- Method: Cell-based phenotypic screening is a commonly used approach to discover biological pathways, novel drug targets, chemical probes and high-quality hit-to-lead molecules. […] A pintool (Kalypsys) was used to transfer 23 nL of compound solution to the 1536-well assay plates. […] Plates were left at room temperature for 10 min before imaging the ATP-coupled luminescence using a ViewLux microplate imager (PerkinElmer, Waltham, MA).
Records with an inconclusive call do not appear. Active and inactive are the calls of the source. Calls come from the whole dose curve; as a rule, active = well fitted inhibition curve with a large enough effect; inconclusive = small, poorly fitted or top-dose-only effect; inactive = flat fitted curve, though single readings scatter.

Cc1c(C(=O)c2cccc3ccccc23)c2cccc3c2n1[C@H](CN1CCOCC1)CO3 | 20.9 µM (active)
CC=C(C)C(=O)O[C@H]1C(C)=C2[C@@H]3OC(=O)[C@@](C)(O)[C@@]3(O)[C@@H](OC(=O)CCC)C[C@](C)(OC(C)=O)[C@@H]2[C@@H]1OC(=O)CCCCCCC | 0.148 µM (active)
CC(=O)[O][Hg][c]1ccccc1 | 4.22 µM (active)
CO/C=C(/C(=O)OC)c1ccccc1Oc1cc(Oc2ccccc2C#N)ncn1 | 19.3 µM (active)

Attention now shifts to the item below.
Consider CCCCCCCCCCCCCCCC[N+](C)(C)C . Its measured Potency is 6.68 µM (active)

====

- experimental_details: Counterscreen for APE1 Inhibitors: Fluorescent Dye Displacement Validation Assay (AID 1707);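 note: plate controls were ThO with dsDNA and no compound for no effect and ThO without dsDNA for full effect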
- run_conditions: fluorescent dye displacement from DNA; series mostly up to 57.1 µM
- From the text: In order to distinguish true inhibitors of DNA-processing enzymes from promiscuous DNA-binding compounds among screening assay hits, we developed a homogeneous and miniaturized assay based on fluorescent dye displacement test as originally described by Tse and Boger (Accounts of Chemical Research (2004) 37: 61-69). […]
Records with an inconclusive call do not appear. Calls of active or inactive are those of the source. Calls follow the shape of the dose curve; as a rule, active = well fitted inhibition curve with a large enough effect; inconclusive = small, poorly fitted or top-dose-only effect; inactive = no such curve, though single readings can be large or run the other way.
# valid calls are active, inactive; nothing else

Cc1c(C(=O)c2cccc3ccccc23)c2cccc3c2n1[C@H](CN1CCOCC1)CO3 | inactive

Task item: Dear colleague, could you share the recorded outcome for CS(=N)(=O)CC[C@H](N)C(=O)O (stereo partly specified) when you have a moment?
Reply: inactive

Task item: Dear colleague, could you share the recorded outcome for CN1C2CCC1CC(OC(=O)c1cc(Cl)cc(Cl)c1)C2 (stereo unspecified) when you have a moment?
Reply: inactive

====

- experimental_details: qHTS drug screen for cell cycle checkpoint inhibitors in PARPi-resistant BRCA-mutant ovarian cancer cell lines. (AID 1963452)
- run_conditions: PEO1/OlaR viability, CellTiter-Glo luminescence, 96 h; measured here: PEO1 parental Z-AUC; stronger effect = lower value
endpoint_label: Z-AUC

COc1ccc(C(=O)c2c(C)n(CCN3CCOCC3)c3cc(I)ccc23)cc1 | -0.515
COCC1(CO)C(=O)C2CCN1CC2 (stereo not drawn) | 0.336
C/C=C(/C)C(=O)O[C@H]1C(C)=C2[C@H]([C@@H]1OC(=O)CCCCCCC)[C@@](C)(OC(C)=O)C[C@H](OC(=O)CCC)[C@@]1(O)[C@H]2OC(=O)[C@@]1(C)O | -2.42
CCOC(=O)c1c(C(C#N)=CN)c2ccc(Cl)c(Cl)c2n1C | 0.557
Cc1ccccc1-n1c(Cn2cnc3c(N)ncnc32)nc2cccc(C)c2c1=O | 0.542

Consider C[C@](O)(COc1ccc(C#N)cc1)C(=O)Nc1ccc(C#N)c(C(F)(F)F)c1 . Its measured Z-AUC is 0.716

Consider CC(=O)Nc1ccc(OC[C@](C)(O)C(=O)Nc2ccc([N+](=O)[O-])c(C(F)(F)F)c2)cc1 . Its measured Z-AUC is -0.737

====

- System: TAB113
- experimental_details: qHTS profiling for inhibitors of Plasmodium falciparum proliferation (AID 504749); note: nearly all actives have a fitted effect of over 60% in size
- run_conditions: P. falciparum in erythrocytes, SYBR Green DNA, 72 h; series mostly up to 28.7 µM
Inconclusive results are not listed. Active and inactive are the calls of the source. Calls come from the whole dose curve; as a rule, active = well fitted inhibition curve with a large enough effect; inconclusive = small, poorly fitted or top-dose-only effect; inactive = flat fitted curve, though single readings scatter.
endpoint_label: outcome

CCCCc1ccc(C(=O)O)nc1 | inactive
NC1=NC(=O)N2CC12 (stereo not drawn) | inactive
NC(=O)CN1CC(O)CC1=O (stereo not drawn) | inactive

====

- experimental_details: Quantitative High-Throughput drug screen in 47 multiple myeloma cell lines against the NCATS MIPE library collection: NCIH929_DSMZ cell viability assay (AID 1918978); note: nearly all actives have a fitted effect of over 35% in size
- run_conditions: NCI-H929 myeloma viability, CellTiter-Glo ATP, 48 h; series mostly up to 45.8 µM
Inconclusive results are not listed. Activity calls are given as the source filed them. Calls come from the whole dose curve; as a rule, active = well fitted cell-killing curve with a large enough effect; inconclusive = small, poorly fitted or top-dose-only effect; inactive = no such curve, though single readings can be large or run the other way.
# valid calls are 1.0 for active, 0.0 for inactive; nothing else

Some entries whose results are on file:
CSCC[C@@H](NC(=O)[C@@H](Cc1ccccc1)NC(=O)CNC(=O)CNC(=O)[C@@H](N)Cc1ccc(O)cc1)C(=O)O | 0.0
Clc1ccccc1C(c1ccccc1)(c1ccccc1)n1cccn1 | 0.0
Cc1nc(-c2ccc(-c3ccc(C(=O)N4CCc5cc6c(cc54)C4(CCN(C)CC4)CO6)cc3)c(C)c2)no1 | 0.0
CCOC(=O)c1cncn1[C@H](C)c1ccccc1 | 0.0
CC(C)(C)c1cc(C=C(C#N)C#N)cc(Br)c1O | 1.0
CC(=O)OCC1=C(C(=O)O)N2C(=O)[C@@H](N)[C@@H]2SC1 | 0.0

Task item: Dear colleague, could you share the recorded outcome for COC1=C[C@@H]2[C@@H]3Cc4ccc(OC)c(O)c4[C@]2(CCN3C)CC1=O when you have a moment?
Reply: 1.0

Task item: Dear colleague, could you share the recorded outcome for CC(C)(O)C=CC(=O)[C@](C)(O)[C@H]1[C@H](O)C[C@]2(C)[C@@H]3CC=C4[C@@H](C=C(O)C(=O)C4(C)C)[C@]3(C)C(=O)C[C@@]12C when you have a moment?
Reply: 1.0

Task item: Dear colleague, could you share the recorded outcome for N#C[C@H](O[C@@H]1O[C@H](CO[C@@H]2O[C@H](CO)[C@H](O)[C@H](O)[C@H]2O)[C@H](O)[C@H](O)[C@H]1O)c1ccccc1 when you have a moment?
Reply: 1.0

Task item: Dear colleague, could you share the recorded outcome for C=CCON=C(C[C@H]1O[C@@H]2O[C@]3(C)CC[C@@H]4[C@H](C)CC[C@@H]([C@H]1C)[C@@]24OO3)[C@H]1O[C@@H]2O[C@]3(C)CC[C@H]4[C@H](C)CC[C@@H]([C@@H]1C)[C@@]24OO3 when you have a moment?
Reply: 1.0

Task item: Dear colleague, could you share the recorded outcome for C[C@]12CC[C@H](O)CC1=CC[C@H]1[C@H]3CCC(=O)[C@@]3(C)CC[C@@H]12 when you have a moment?
Reply: 0.0

====

- Test system: CP203
- experimental_details: qHTS profiling for inhibitors of Plasmodium falciparum proliferation (AID 504749); note: nearly all actives have a fitted effect of over 60% in size
- run_conditions: P. falciparum in erythrocytes, SYBR Green DNA, 72 h; series mostly up to 28.7 µM
Results filed as inconclusive are left out. Activity calls are given as the source filed them. Calls follow the shape of the dose curve; as a rule, active = well fitted inhibition curve with a large enough effect; inconclusive = small, poorly fitted or top-dose-only effect; inactive = flat fitted curve, though single readings scatter.
# valid calls are true (1) = active, false (0) = inactive; nothing else

Some entries whose results are on file:
COC(=O)c1cncn1C(C)c1ccccc1 (stereo unspecified) | false (0)
COC(=O)[C@@H](N)CCCN=C(N)N[N+](=O)[O-] | false (0)
NC1=NC(=O)N2CC12 (stereo unspecified) | false (0)
CCCCCCCCCC(CC)c1ccc(S(=O)(=O)O)cc1 (stereo unspecified) | false (0)
O=C(O)COc1ccccc1 | false (0)

Task item: Dear colleague, could you share the recorded outcome for CN1C2CCC1CC(OC(=O)c1cc(Cl)cc(Cl)c1)C2 (stereo unspecified) when you have a moment?
Reply: false (0)

Task item: Dear colleague, could you share the recorded outcome for Cc1cc(O)ccc1Cl when you have a moment?
Reply: false (0)

Task item: Dear colleague, could you share the recorded outcome for CC(C)NC(C)Cc1ccc(I)cc1 (stereo unspecified) when you have a moment?
Reply: false (0)

Task item: Dear colleague, could you share the recorded outcome for CC(=O)[O][Hg][c]1ccccc1 when you have a moment?
Reply: true (1)

Task item: Dear colleague, could you share the recorded outcome for Cc1ccc(Cl)c(O)c1 when you have a moment?
Reply: false (0)

Task item: Dear colleague, could you share the recorded outcome for C[C@]12CCC(=O)C(O)=C1CC[C@@H]1[C@H]3CCC(=O)[C@@]3(C)CC[C@@H]12 when you have a moment?
Reply: false (0)

Task item: Dear colleague, could you share the recorded outcome for CCCN1CCC[C@H](c2cccc(O)c2)C1 when you have a moment?
Reply: false (0)

Task item: Dear colleague, could you share the recorded outcome for c1ccc(C2(c3ccccc3)CC2C2=NCCN2)cc1 (stereo unspecified) when you have a moment?
Reply: false (0)

Task item: Dear colleague, could you share the recorded outcome for O=[N+]([O-])c1ccc([As](=O)(O)O)cc1 when you have a moment?
Reply: true (1)

Task item: Dear colleague, could you share the recorded outcome for CC[N+]1(CCOC(=O)C(O)(c2ccccc2)c2ccccc2)CCCCC1 when you have a moment?
Reply: false (0)

Task item: Dear colleague, could you share the recorded outcome for C1CCC(NC2CCCCC2)CC1 when you have a moment?
Reply: false (0)
